measurement.notes: qHTS assay to identify small molecule agonists of the NFkB signaling pathway (AID 1159509); also: % is scaled to controls: 0 for no effect and ±100 for the full control effect
condition.set: NFkB-bla ME-180 cells, beta-lactamase FRET ratio, 5 h; series mostly up to 61 µM
Excerpt: National Center for Advancing Translational Sciences [NCATS] NIH Chemical Genomics Center [NCGC] U.S. Environmental Protection Agency [EPA] National Institutes of Environmental Health Sciences [NIEHS] National Toxicology Program [NTP] U.S. Food and Drug Administration [FDA] Transcription factors and their stimulated target gene expression play pivotal roles across many cellular processes including responses to environmental stimuli. […]
Results filed as inconclusive are left out. The source made the active and inactive calls. Calls follow the shape of the dose curve; as a rule, active = well fitted curve in the direction sought with a large enough effect in the signal ratio in the repeat runs (not every such curve was filed as active); inconclusive = weak or mixed curves, or a change in a side signal; inactive = no such curve, though single readings can be large or run the other way; the % refers to the signal ratio.
readout.name: activation

compound: CCCCOCC(C)OCC(C)O (centres undefined)
activation: inactive

compound: CO[Si](CCCNCCC[Si](OC)(OC)OC)(OC)OC
activation: inactive

compound: O=C1C(CCS(=O)c2ccccc2)C(=O)N(c2ccccc2)N1c1ccccc1 (centres undefined)
activation: inactive

compound: CCCCCCCCCCCl
activation: inactive

compound: COc1ccc(N=[N+]([O-])c2ccc(OC)cc2)cc1
activation: inactive

Q: // lookup activation for COCc1ccc(COC)cc1
A: inactive

Q: And then CC1CCN(CCCC(=O)c2ccc(F)cc2)CC1 , what is it?
A: inactive

Q: And then CCCCNc1ccccc1 , what is it?
A: inactive

Q: And then CN1[C@@H]2CC[C@H]1CC(NC(=O)n1c(=O)[nH]c3ccccc31)C2 (some centres undefined) , what is it?
A: inactive

====

measurement.notes: qHTS RealTime-Glo MT Cell Viability Assay in HepG2 cells - 40 hour (AID 1224870); also: % is scaled to controls: 0 for no effect and ±100 for the full control effect; nearly all actives have a fitted effect of over 50% in size
condition.set: RealTime-Glo luminescence; series mostly up to 76.8 µM
Results filed as inconclusive are left out. Calls of active or inactive are those of the source. Calls follow the shape of the dose curve; as a rule, active = well fitted cell-killing curve with a large enough effect in the repeat runs; inconclusive = weak or mixed curves, or effect the other way; inactive = flat fitted curve, though single readings scatter.
readout.name: outcome

compound: CCCc1ccccc1O
outcome: inactive
//
compound: C=C[Si](OC)(OC)OC
outcome: inactive
//
compound: C#CC(O)C(CC)CCCC (stereo unspecified)
outcome: inactive
//
compound: COc1ccc(N=[N+]([O-])c2ccc(OC)cc2)cc1
outcome: inactive
//
compound: CC(C)=CC(=O)O
outcome: inactive
//
compound: COc1ccc(COC=O)cc1
outcome: inactive

Q: // lookup outcome for NCCN1CCNC1=O
A: inactive

Q: And then CCCCCCCCC=O , what is it?
A: inactive

Q: And then CCN(CC)C(=O)c1ccc(O)c(OC)c1 , what is it?
A: inactive

Q: And then CCCCNc1ccccc1 , what is it?
A: inactive

Q: And then NC(=O)c1ncn([C@@H]2O[C@H](CO)[C@@H](O)[C@H]2O)c1N , what is it?
A: inactive

Q: And then Nc1ccn(C2CO[C@H](CO)O2)c(=O)n1 (stereo partly specified) , what is it?
A: inactive

Q: And then COc1cc(CCC(C)=O)ccc1O , what is it?
A: inactive

Q: And then O=C1C(CCS(=O)c2ccccc2)C(=O)N(c2ccccc2)N1c1ccccc1 (stereo unspecified) , what is it?
A: inactive

Q: And then NCCNC(=O)c1ccc(Cl)cn1 , what is it?
A: inactive

Q: And then Cc1ccc(Nc2ccc(O)c3c2C(=O)c2ccccc2C3=O)cc1 , what is it?
A: inactive

====

measurement.notes: qHTS assay to identify small molecule antagonists of the vitamin D receptor (VDR) signaling pathway - cell viability counter screen (AID 743225); also: % is scaled to controls: 0 for no effect and ±100 for the full control effect; nearly all actives have a fitted effect of over 50% in size
condition.set: VDR-bla HEK293T viability, CellTiter-Glo luminescence, 16 h; series mostly up to 61 µM
Records with an inconclusive call do not appear. Active and inactive are the calls of the source. Calls come from the whole dose curve; as a rule, active = well fitted cell-killing curve with a large enough effect in the repeat runs; inconclusive = weak or mixed curves, or effect the other way; inactive = no such curve, though single readings can be large or run the other way.
readout.name: viability change, negative = cytotoxic

compound: CCCCCCC(CCCCCCCCCCC(=O)OCC(COC(C)=O)OC(C)=O)OC(C)=O (stereo unspecified)
viability change, negative = cytotoxic: inactive

compound: CCCCNc1ccccc1
viability change, negative = cytotoxic: inactive

compound: COc1ccc2cc(C=O)ccc2c1
viability change, negative = cytotoxic: inactive

compound: COC[C@H](c1ccc(C(F)(F)F)cc1)N1CCN(C2(C)CCN(C(=O)c3c(C)ncnc3C)CC2)C[C@H]1C
viability change, negative = cytotoxic: inactive

compound: CCc1cc(S(=O)(=O)O)c2cc(C(C)C)cccc1-2
viability change, negative = cytotoxic: inactive

Q: // lookup viability change, negative = cytotoxic for NC(=O)c1c(Cl)cccc1Cl
A: inactive

====

tested.target: Nuclear receptor subfamily 1 group I member 2 (Homo sapiens) (UniProt O75469)
Sequence (O75469 whole entry, looked up): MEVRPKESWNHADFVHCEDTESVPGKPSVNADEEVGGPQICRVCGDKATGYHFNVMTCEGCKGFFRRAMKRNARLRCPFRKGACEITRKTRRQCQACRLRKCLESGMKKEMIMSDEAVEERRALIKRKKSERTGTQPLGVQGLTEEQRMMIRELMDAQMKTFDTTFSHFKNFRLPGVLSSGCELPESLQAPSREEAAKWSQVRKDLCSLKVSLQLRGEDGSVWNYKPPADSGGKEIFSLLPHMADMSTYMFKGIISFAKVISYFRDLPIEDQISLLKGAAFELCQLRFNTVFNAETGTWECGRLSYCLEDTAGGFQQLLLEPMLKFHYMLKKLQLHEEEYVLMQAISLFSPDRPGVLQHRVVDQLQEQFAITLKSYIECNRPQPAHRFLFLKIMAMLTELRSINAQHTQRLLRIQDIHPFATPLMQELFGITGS
measurement.notes: Human pregnane X receptor (PXR) small molecule agonists, qHTS assay (AID 1346982); also: % is scaled to controls: 0 for no effect and ±100 for the full control effect; nearly all actives have a fitted effect of over 35% in size
condition.set: PXR-Luc HepG2, CYP3A4 luciferase reporter, 24 h; series mostly up to 92.4 µM
Records with an inconclusive call do not appear. Activity calls are given as the source filed them. Calls come from the whole dose curve; as a rule, active = well fitted activation curve with a large enough effect in the repeat runs; inconclusive = weak or mixed curves; inactive = no such curve, though single readings can be large or run the other way.
# activation annotations

// worked examples, activation included
line.notation: NC(=S)Nc1cccc2ccccc12
activation: -0.9% [at 8.39 µM] (inactive)
--
line.notation: C=C(C)C(=O)OCCCCCCCCCCCCCCCCCC
activation: -0.119% [at 19 µM] (inactive)

Q: // lookup activation for CCn1cc(C(=O)O)c(=O)c2cc(F)c(N3CCN(C)CC3)cc21
A: -5.92% [at 19 µM] (inactive)

Q: And then C1CCCCCCCCCCC1 , what is it?
A: 7.58% [at 19 µM] (inactive)

Q: And then FC(F)(F)C(F)(F)C(F)(F)C(F)(F)C(F)(F)C(F)(F)C(F)(F)C(F)(F)C(F)(F)C(F)(F)F , what is it?
A: -1.65% [at 8.39 µM] (inactive)

====

measurement.notes: qHTS assay to identify small molecule antagonists of the androgen receptor (AR) signaling pathway - cell viability counter screen (AID 743033; also: % is scaled to controls: 0 for no effect and ±100 for the full control effect; nearly all actives have a fitted effect of over 45% in size)
condition.set: AR-bla HEK293 viability, CellTiter-Glo luminescence, 16 h; series mostly up to 58.5 µM
Inconclusive results are not listed. Calls of active or inactive are those of the source. Calls follow the shape of the dose curve; as a rule, active = well fitted cell-killing curve with a large enough effect in the repeat runs; inconclusive = weak or mixed curves; inactive = no such curve, though single readings can be large or run the other way.
readout.name: activity change, negative = cytotoxicity

// worked examples, activity change, negative = cytotoxicity included
compound: CCCC=O
activity change, negative = cytotoxicity: inactive
--
compound: CCO[Si](CCCN=C=O)(OCC)OCC
activity change, negative = cytotoxicity: inactive
--
compound: NC(=S)Nc1cccc2ccccc12
activity change, negative = cytotoxicity: 0.303% [at 7.04 µM] (inactive)
--
compound: COC(=O)c1ccc(C(=O)OC)c(C(=O)OC)c1
activity change, negative = cytotoxicity: inactive
--
compound: O=C(O)/C=C/c1ccc(Cn2ccnc2)cc1
activity change, negative = cytotoxicity: inactive

Q: // lookup activity change, negative = cytotoxicity for CC/C=C\C#N
A: inactive

Q: And then Cc1cc(C)cc(OCC2CNC(=O)O2)c1 (stereo not drawn) , what is it?
A: inactive

Q: And then FC(F)(F)C(F)(F)C(F)(F)C(F)(F)C(F)(F)C(F)(F)C(F)(F)C(F)(F)C(F)(F)C(F)(F)F , what is it?
A: 0.133% [at 7.04 µM] (inactive)

====

measurement.notes: qHTS assay to identify small molecule agonists of the peroxisome proliferator-activated receptor delta (PPARd) signaling pathway - cell viability counter screen (AID 743211); also: % is scaled to controls: 0 for no effect and ±100 for the full control effect; nearly all actives have a fitted effect of over 55% in size
condition.set: PPARd-bla HEK293H viability, CellTiter-Glo luminescence, 17 h; series mostly up to 62.6 µM
Records with an inconclusive call do not appear. Calls of active or inactive are those of the source. The call rests on the fitted dose curve; in most records, active means well fitted cell-killing curve with a large enough effect in the repeat runs; inconclusive means weak or mixed curves; inactive means no such curve, though single readings can be large or run the other way.
readout.name: outcome

// worked examples, outcome included
molecule: C=C(C)C(=O)NCCCN(C)C
outcome: inactive
//
molecule: CC(C)CCCC(C)CCCC(C)CCCCC(C)CCCC(C)CCCC(C)C (centres undefined)
outcome: inactive
//
molecule: CCCCC1CCCCC(=O)O1 (centres undefined)
outcome: inactive
//
molecule: CC(C)(C)CC(C)(C)N
outcome: inactive
//
molecule: OCc1ccccn1
outcome: inactive

Q: // lookup outcome for Cc1c(C)n(CCN(C)C)c2ccc(C(=O)OCCN(C)C)cc12
A: inactive

====

tested.target: Bile acid receptor (Homo sapiens)
measurement.notes: qHTS assay to identify small molecule agonists of the farnesoid-X-receptor (FXR) signaling pathway (AID 743220); also: % is scaled to controls: 0 for no effect and ±100 for the full control effect
condition.set: HEK293T FXR-UAS-bla, beta-lactamase FRET ratio, 16 h; series mostly up to 62.6 µM
Results filed as inconclusive are left out. Calls of active or inactive are those of the source. The call rests on the fitted dose curve; in most records, active means well fitted activation curve with a large enough effect in the signal ratio in the repeat runs (not every such curve was filed as active); inconclusive means weak or mixed curves, or effect the other way; inactive means flat fitted curve, though single readings scatter; the % refers to the signal ratio.
readout.name: outcome

compound: C1COCCO1
outcome: inactive
--
compound: C(=C(c1ccccc1)c1ccccc1)c1ccccc1
outcome: inactive
--
compound: CC1=CCC2C(C1)C2(C)C (configuration not stated)
outcome: inactive
--
compound: Nc1[nH]c(=O)ncc1F
outcome: inactive
--
compound: CCCCCCCCCCCCI
outcome: inactive
--
compound: CC1(C)SC(C)(C)SC(C)(C)S1
outcome: inactive

Q: // lookup outcome for OCCCCCCO
A: inactive

====

measurement.notes: qHTS assay to test for compound auto fluorescence at 590 nm (red) in HEK293 cells (AID 720679); also: % is scaled to controls: 0 for no effect and ±100 for the full control effect
condition.set: red autofluorescence 540/590 nm; series mostly up to 91.3 µM
Activity calls are given as the source filed them. Calls follow the shape of the dose curve; as a rule, active = well fitted curve in the direction sought with a large enough effect in the repeat runs; inconclusive = weak or mixed curves; inactive = flat fitted curve, though single readings scatter.
readout.name: fluorescence, % of fluorescent control

compound: COc1cc(C(=O)N2CCOCC2)cc(OC)c1OC
fluorescence, % of fluorescent control: inactive
--
compound: CC(C)(C)C(=O)/C=C/c1ccc(Cl)cc1
fluorescence, % of fluorescent control: inactive
--
compound: COC(=O)CCCCCCCCC(=O)OC
fluorescence, % of fluorescent control: inactive
--
compound: N#CC1(O)CCCCC1
fluorescence, % of fluorescent control: inactive

Q: // lookup fluorescence, % of fluorescent control for C=C(C)C(=O)NCCCN(C)C
A: inactive

Q: And then C=C(C)C(=O)NCCC[N+](C)(C)C , what is it?
A: inactive

Q: And then OCC(CO)(CO)COCC(CO)(CO)CO , what is it?
A: inactive

Where do the numbers come from? From PubChem BioAssay (Tox21).
